- ASSAY_OVERVIEW: qHTS assay to identify small molecule antagonists of the sonic hedgehog signaling (Shh) pathway - cell viability counter screen (AID 1259367); note: nearly all actives have a fitted effect of over 55% in size
- RUN_CONDITIONS: NIH/3T3 Gli1-Luc viability, CellTiter-Fluor, 24 h; series mostly up to 92.4 µM
Records with an inconclusive call do not appear. The source made the active and inactive calls. Calls come from the whole dose curve; as a rule, active = well fitted cell-killing curve with a large enough effect in the repeat runs; inconclusive = weak or mixed curves, or effect the other way; inactive = no such curve, though single readings can be large or run the other way.
EXPERIMENTAL_READOUT: outcome

| COMPOUND | EXPERIMENTAL_READOUT | VALUE |
| --- | --- | --- |
| CC1=CCCC(C)(C)C12CCC(C)O2 (stereo not drawn) | outcome | inactive |
| C[N+]1(CC2COC(c3ccccc3)(C3CCCCC3)O2)CCCCC1 (stereo not drawn) | outcome | inactive |
| CCOC(=O)Cc1cccc2ccccc12 | outcome | inactive |
